Where do these numbers come from? They come from ChEMBL document CHEMBL5291721.

study.target: D(1A) dopamine receptor (Homo sapiens, UniProt P21728); note: assay procedure not described here
Sequence (P21728 whole entry): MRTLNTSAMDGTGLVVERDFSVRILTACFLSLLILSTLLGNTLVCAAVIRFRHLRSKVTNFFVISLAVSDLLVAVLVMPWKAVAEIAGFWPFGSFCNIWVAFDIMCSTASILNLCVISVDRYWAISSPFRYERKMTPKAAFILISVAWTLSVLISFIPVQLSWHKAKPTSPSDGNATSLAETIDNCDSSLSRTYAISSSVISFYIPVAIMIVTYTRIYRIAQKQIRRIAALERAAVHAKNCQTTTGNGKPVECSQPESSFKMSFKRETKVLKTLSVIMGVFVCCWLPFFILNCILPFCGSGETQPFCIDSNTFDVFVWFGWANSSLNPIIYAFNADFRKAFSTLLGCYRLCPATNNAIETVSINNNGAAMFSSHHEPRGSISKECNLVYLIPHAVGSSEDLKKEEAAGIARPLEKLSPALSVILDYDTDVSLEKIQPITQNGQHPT
Type: functional, cell-based
experimental.readout: AC50

## Input Need AC50 of Cn1cnc2c(F)c(Nc3ccc(Br)cc3F)c(C(=O)NOCCO)cc21 , thanks.
## Output > 30 µM

## Input Need AC50 of CN1CC2c3ccccc3Oc3ccc(Cl)cc3C2C1 (centres undefined) , thanks.
## Output > 30 µM

## Input Need AC50 of O=C(Cc1cccs1)N[C@@H]1C(=O)N2C(C(=O)[O-])=C(C[n+]3ccccc3)CS[C@H]12 , thanks.
## Output > 30 µM

## Input Need AC50 of C[C@]12CCC(=O)C=C1CC[C@H]1[C@@H]3CC[C@](O)(C(=O)CO)[C@@]3(C)C[C@H](O)[C@@]12F , thanks.
## Output > 10 µM

* * *

For reference, AC50 measured on Cannabinoid receptor 1 (Homo sapiens, UniProt P21554):

## Input Need AC50 of Nc1nc(Cl)nc2c1ncn2[C@@H]1O[C@H](CO)[C@@H](O)[C@@H]1F , thanks.
## Output > 30 µM

## Input Need AC50 of CCN(CC)C(C)C(=O)c1ccccc1 (centres undefined) , thanks.
## Output > 10 µM

## Input Need AC50 of Clc1ccc(COC(Cn2ccnc2)c2ccc(Cl)cc2Cl)c(Cl)c1 (centres undefined) , thanks.
## Output > 10 µM

## Input Need AC50 of CC1Cc2ccccc2N1NC(=O)c1ccc(Cl)c(S(N)(=O)=O)c1 (centres undefined) [INDAPAMIDE] , thanks.
## Output > 10 µM

## Input Need AC50 of O=C1CN=C(c2ccccc2Cl)c2cc([N+](=O)[O-])ccc2N1 , thanks.
## Output > 10 µM

## Input Need AC50 of Oc1cc(O)c2c(c1)O[C@H](c1ccc(O)c(O)c1)[C@@H](O)C2 , thanks.
## Output > 10 µM

## Input Need AC50 of NCCCCCC(=O)O , thanks.
## Output > 10 µM

## Input Need AC50 of C=CC1=C(C(=O)O)N2C(=O)[C@@H](NC(=O)/C(=N\O)c3csc(N)n3)[C@H]2SC1 , thanks.
## Output 15.8 µM

## Input Need AC50 of CCC(=O)c1ccc2c(c1)N(CC(C)N(C)C)c1ccccc1S2 (centres undefined) , thanks.
## Output > 10 µM

* * *

study.target: UniProt:P35348
Sequence (P35348 whole entry): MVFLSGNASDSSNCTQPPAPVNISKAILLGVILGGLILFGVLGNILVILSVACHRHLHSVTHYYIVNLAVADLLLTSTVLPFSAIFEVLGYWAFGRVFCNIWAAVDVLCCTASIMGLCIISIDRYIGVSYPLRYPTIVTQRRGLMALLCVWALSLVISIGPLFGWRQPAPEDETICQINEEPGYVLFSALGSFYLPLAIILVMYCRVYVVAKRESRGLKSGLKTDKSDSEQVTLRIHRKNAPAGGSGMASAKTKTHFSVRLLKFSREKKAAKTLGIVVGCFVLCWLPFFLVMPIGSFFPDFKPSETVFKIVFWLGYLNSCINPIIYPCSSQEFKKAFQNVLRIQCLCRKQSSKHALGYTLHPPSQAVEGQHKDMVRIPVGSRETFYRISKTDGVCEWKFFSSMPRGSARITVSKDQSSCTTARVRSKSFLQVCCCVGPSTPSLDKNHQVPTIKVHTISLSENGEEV
Format: functional, cell-based
experimental.readout: AC50

## Input Need AC50 of Cc1c(C)c2c(c(C)c1O)CCC(C)(COc1ccc(CC3SC(=O)NC3=O)cc1)O2 (centres undefined) , thanks.
## Output > 30 µM

## Input Need AC50 of C[C@@H](O)[C@H]1C(=O)N2C(C(=O)O)=C(SCCN=CN)C[C@H]12 [IMIPENEM ANHYDROUS] , thanks.
## Output > 300 µM

## Input Need AC50 of O=C(O)c1nn(Cc2ccc(Cl)cc2Cl)c2ccccc12 , thanks.
## Output > 30 µM

## Input Need AC50 of CN(C)[C@@H]1C(O)=C(C(=O)NCN2CCCC2)C(=O)[C@@]2(O)C(O)=C3C(=O)c4c(O)cccc4[C@@](C)(O)[C@H]3C[C@@H]12 , thanks.
## Output > 30 µM

* * *

study.target: UniProt:P08908
Sequence (P08908 whole entry): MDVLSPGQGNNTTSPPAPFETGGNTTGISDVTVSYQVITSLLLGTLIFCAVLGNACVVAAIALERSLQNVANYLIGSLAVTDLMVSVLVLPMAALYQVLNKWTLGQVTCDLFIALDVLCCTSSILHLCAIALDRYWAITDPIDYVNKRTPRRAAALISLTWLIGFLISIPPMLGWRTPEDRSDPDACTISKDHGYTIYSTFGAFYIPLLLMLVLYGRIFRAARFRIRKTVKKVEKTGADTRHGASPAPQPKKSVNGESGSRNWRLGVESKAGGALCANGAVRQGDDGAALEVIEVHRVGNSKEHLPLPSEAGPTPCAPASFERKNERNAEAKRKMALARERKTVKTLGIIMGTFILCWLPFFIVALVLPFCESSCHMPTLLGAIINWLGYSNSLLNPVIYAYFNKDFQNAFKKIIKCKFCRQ
Type: functional, cell-based
experimental.readout: AC50

## Input Hello, I am looking for reported AC50 with UniProt:P08908 for CCN(C(C)=O)c1cccc(-c2ccnc3c(C#N)cnn23)c1 . Could you help?
## Output > 10 µM

## Input Hello, I am looking for reported AC50 with UniProt:P08908 for C[C@H](Cn1cnc2c(N)ncnc21)OCP(=O)(O)O [TENOFOVIR ANHYDROUS] . Could you help?
## Output > 30 µM

## Input Hello, I am looking for reported AC50 with UniProt:P08908 for CC(=O)OCC(=O)[C@@]1(O)CC[C@H]2[C@@H]3CCC4=CC(=O)CC[C@]4(C)[C@@]3(F)[C@@H](O)C[C@@]21C [FLUDROCORTISONE ACETATE] . Could you help?
## Output > 30 µM

## Input Hello, I am looking for reported AC50 with UniProt:P08908 for O=C(O)CCCC[C@@H]1SC[C@@H]2NC(=O)N[C@@H]21 . Could you help?
## Output > 10 µM

* * *

Would you mind telling me the reported AC50 of each entry?
study.target: Alpha-2A adrenergic receptor (Homo sapiens, UniProt P08913); note: assay procedure not described here
Sequence (P08913 whole entry): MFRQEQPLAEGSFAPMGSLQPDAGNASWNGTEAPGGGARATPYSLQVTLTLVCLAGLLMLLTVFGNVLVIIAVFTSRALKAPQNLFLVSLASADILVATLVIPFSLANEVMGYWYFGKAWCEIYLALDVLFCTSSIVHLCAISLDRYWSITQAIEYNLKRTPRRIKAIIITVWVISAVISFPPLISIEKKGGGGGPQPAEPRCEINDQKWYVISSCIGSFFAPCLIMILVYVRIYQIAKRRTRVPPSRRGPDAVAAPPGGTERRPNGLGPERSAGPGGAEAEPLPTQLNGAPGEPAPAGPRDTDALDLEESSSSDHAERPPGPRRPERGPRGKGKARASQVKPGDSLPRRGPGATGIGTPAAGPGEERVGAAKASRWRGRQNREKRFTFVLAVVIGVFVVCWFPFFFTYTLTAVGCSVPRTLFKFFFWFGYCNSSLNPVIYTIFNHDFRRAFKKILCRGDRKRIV
Format: functional, cell-based

## Input Need AC50 of CCN(CC)C(C)C(=O)c1ccccc1 (centres undefined) , thanks.
## Output > 10 µM

## Input Need AC50 of Nc1nc(Cl)nc2c1ncn2[C@@H]1O[C@H](CO)[C@@H](O)[C@@H]1F , thanks.
## Output > 10 µM

## Input Need AC50 of CO[C@@H]1[C@@H](OC(N)=O)[C@@H](O)[C@H](Oc2ccc3c(O)c(NC(=O)c4ccc(O)c(CC=C(C)C)c4)c(=O)oc3c2C)OC1(C)C , thanks.
## Output > 30 µM

## Input Need AC50 of CCc1ccc(C(=O)C(C)CN2CCCCC2)cc1 (centres undefined) , thanks.
## Output > 30 µM

## Input Need AC50 of CCN(C(C)=O)c1cccc(-c2ccnc3c(C#N)cnn23)c1 , thanks.
## Output > 10 µM

## Input Need AC50 of CC(C)(C)NCC(O)COc1cccc2c1CC(O)C(O)C2 (centres undefined) , thanks.
## Output > 10 µM

## Input Need AC50 of COc1cc(C(=O)NCc2ccc(OCCN(C)C)cc2)cc(OC)c1OC [TRIMETHOBENZAMIDE] , thanks.
## Output > 30 µM

## Input Need AC50 of CN(C)CCOC(=O)C(c1ccccc1)C1(O)CCCC1 (centres undefined) [CYCLOPENTOLATE] , thanks.
## Output > 10 µM

## Input Need AC50 of C=CC1=C(C(=O)O)N2C(=O)[C@@H](NC(=O)/C(=N\O)c3csc(N)n3)[C@H]2SC1 , thanks.
## Output > 10 µM

* * *

Would you mind telling me the reported AC50 of each entry?
study.target: Thromboxane A2 receptor (Homo sapiens); note: assay procedure not described here
Sequence (P21731 whole entry): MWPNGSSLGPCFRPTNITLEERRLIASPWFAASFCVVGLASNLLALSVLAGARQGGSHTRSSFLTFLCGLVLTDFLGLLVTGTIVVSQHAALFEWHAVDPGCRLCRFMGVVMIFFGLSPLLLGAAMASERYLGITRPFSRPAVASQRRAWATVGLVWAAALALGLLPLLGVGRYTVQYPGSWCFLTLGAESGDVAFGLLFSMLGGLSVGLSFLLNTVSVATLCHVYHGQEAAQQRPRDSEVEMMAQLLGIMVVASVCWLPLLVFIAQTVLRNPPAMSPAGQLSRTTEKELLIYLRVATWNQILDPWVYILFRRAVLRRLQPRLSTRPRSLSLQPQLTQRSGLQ
Format: functional, cell-based

## Input Need AC50 of N#Cc1ccnc(N2C(=O)CC[C@H]2C(=O)N(c2cncc(F)c2)[C@H](C(=O)NC2CC(F)(F)C2)c2ccccc2Cl)c1 [IVOSIDENIB] , thanks.
## Output > 30 µM

## Input Need AC50 of CCCCC(=O)O[C@H]1CC[C@H]2[C@@H]3CCc4cc(O)ccc4[C@H]3CC[C@]12C [ESTRADIOL VALERATE] , thanks.
## Output > 30 µM

## Input Need AC50 of CCn1c(=O)c2c(nc(/C=C/c3ccc(OC)c(OC)c3)n2C)n(CC)c1=O [ISTRADEFYLLINE] , thanks.
## Output > 30 µM

## Input Need AC50 of Cc1cccc(C)c1NC(=O)CN(CC(=O)O)CC(=O)O [LIDOFENIN] , thanks.
## Output > 30 µM

## Input Need AC50 of C[C@@H]1CN(c2c(F)c(N)c3c(=O)c(C(=O)O)cn(C4CC4)c3c2F)C[C@H](C)N1 [SPARFLOXACIN] , thanks.
## Output > 30 µM

## Input Need AC50 of CCCCCCCCCCCCCCCC(=O)OC[C@H](COP(=O)([O-])OCC[N+](C)(C)C)OC(=O)CCCCCCCCCCCCCCC [COLFOSCERIL PALMITATE] , thanks.
## Output > 30 µM

## Input Need AC50 of CC(C)N1CCN(c2ccc(OCC3COC(Cn4cncn4)(c4ccc(Cl)cc4Cl)O3)cc2)CC1 (stereo unspecified) [TERCONAZOLE] , thanks.
## Output 20 µM

## Input Need AC50 of CC(=O)OC1CN2CCC1CC2 (stereo unspecified) [ACECLIDINE] , thanks.
## Output > 30 µM

## Input Need AC50 of NC(=O)C1(N2CCCCC2)CCN(CCCN2c3ccccc3CCc3ccccc32)CC1 [CARPIPRAMINE] , thanks.
## Output 24.6 µM

## Input Need AC50 of COc1c(OCCCN2CCOCC2)ccc2c1N=C(NC(=O)c1cnc(N)nc1)N1CCN=C21 [COPANLISIB] , thanks.
## Output > 30 µM

## Input Need AC50 of O=C(Cc1cccs1)N[C@@H]1C(=O)N2C(C(=O)[O-])=C(C[n+]3ccccc3)CS[C@H]12 [CEPHALORIDINE] , thanks.
## Output > 30 µM
